Measured polymerase ribozyme fitness (log ratio) values are reported for all entries that follow.
B1: TPR t1 (parent)
chain: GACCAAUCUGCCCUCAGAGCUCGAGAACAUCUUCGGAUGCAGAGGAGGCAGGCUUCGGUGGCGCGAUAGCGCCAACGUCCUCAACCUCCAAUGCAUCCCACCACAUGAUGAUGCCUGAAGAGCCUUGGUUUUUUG

- Variants of: B1
- test.details: polymerase ribozyme fitness, log enrichment relative to wild type (log ratio); higher = more active; in vitro selection for triplet polymerase activity
Give the value as a plain number.

Exam item: So what's the measured polymerase ribozyme fitness (log ratio) for this one? C73U C89U C101U
Marked response: -0.461

Exam item: So what's the measured polymerase ribozyme fitness (log ratio) for this one? G44A A46U G47C A74G G93A
Marked response: -3.83

Exam item: So what's the measured polymerase ribozyme fitness (log ratio) for this one? G52C C64U A84U C104A U112A
Marked response: -1.62

Exam item: So what's the measured polymerase ribozyme fitness (log ratio) for this one? C22G G57U U92C A100U C104A G113A
Marked response: -7.69

Exam item: So what's the measured polymerase ribozyme fitness (log ratio) for this one? U7C C62U A111U U133A
Marked response: -2.88

Exam item: So what's the measured polymerase ribozyme fitness (log ratio) for this one? U87A C88A U96C
Marked response: -1.02
